System: Rattus norvegicus
Test: Antiinflammatory activity against carrageenan-induced hind paw edema in rat at 41 umol/kg, po after 4 hrs relative to flurbiprophen
Format: functional

# compound, measure unit, Activity
records = [
    ("COc1ccc(C2CC(c3ccc(-c4ccccc4)cc3)=NN2C(=O)c2ccccc2)cc1 (configuration not stated)", "%", 47.36),
    ("Cc1ccc(C2CC(c3ccc(-c4ccccc4)cc3)=NN2)cc1 (configuration not stated)", "%", 82.45),
    ("Clc1ccc(C2CC(c3ccc(-c4ccccc4)cc3)=NN2)cc1 (configuration not stated)", "%", 28.06),
    ("COc1cc(OC)c(C2CC(c3ccc(-c4ccccc4)cc3)=NN2)c(OC)c1 (configuration not stated)", "%", 82.45),
    ("Cc1ccc(C2CC(c3ccc(-c4ccccc4)cc3)=NN2C(=O)c2ccccc2)cc1 (configuration not stated)", "%", 31.57),
    ("COc1ccc(C2CC(c3ccc(-c4ccccc4)cc3)=NN2)cc1 (configuration not stated)", "%", 36.83),
    ("CN(C)c1ccc(C2CC(c3ccc(-c4ccccc4)cc3)=NN2C(=O)c2ccccc2)cc1 (configuration not stated)", "%", 35.08),
    ("COc1ccc(C2CC(c3ccc(-c4ccccc4)cc3)=NN2)cc1OC (configuration not stated)", "%", 40.35),
    ("Clc1ccccc1C1CC(c2ccc(-c3ccccc3)cc2)=NN1 (configuration not stated)", "%", 31.57),
    ("O=C(c1ccccc1)N1N=C(c2ccc(-c3ccccc3)cc2)CC1c1ccccc1Cl (configuration not stated)", "%", 38.59),
    ("CN(C)c1ccc(C2CC(c3ccc(-c4ccccc4)cc3)=NN2)cc1 (configuration not stated)", "%", 36.84),
    ("CC(C(=O)O)c1ccc(-c2ccccc2)c(F)c1 (configuration not stated)", "%", 80.69),
    ("COc1ccc(C2CC(c3ccc(-c4ccccc4)cc3)=NN2C(=O)c2ccccc2)cc1OC (configuration not stated)", "%", 35.08),
    ("c1ccc(-c2ccc(C3=NNC(c4ccccc4)C3)cc2)cc1 (configuration not stated)", "%", 38.6),
    ("O=C(c1ccccc1)N1N=C(c2ccc(-c3ccccc3)cc2)CC1c1ccccc1 (configuration not stated)", "%", 33.32),
    ("COc1cc(OC)c(C2CC(c3ccc(-c4ccccc4)cc3)=NN2C(=O)c2ccccc2)c(OC)c1 (configuration not stated)", "%", 75.38),
    ("O=C(c1ccccc1)N1N=C(c2ccc(-c3ccccc3)cc2)CC1c1ccc(Cl)cc1 (configuration not stated)", "%", 42.1),
]

###

Tested on: Mus musculus
Experiment: Ulcerogenic effect in mouse at 123 umol/kg, po relative to flurbiprophen
Type: toxicity, organism-based
Conditions: in vivo
Listed below: UI values for each entry.
value type: UI

# compound, reported result
data = [
    ("Cc1ccc(C2CC(c3ccc(-c4ccccc4)cc3)=NN2)cc1 (centres undefined)", 0.5),
    ("COc1cc(OC)c(C2CC(c3ccc(-c4ccccc4)cc3)=NN2C(=O)c2ccccc2)c(OC)c1 (centres undefined)", 0.583),
    ("CC(C(=O)O)c1ccc(-c2ccccc2)c(F)c1 (centres undefined) [FLURBIPROFEN]", 1.666),
    ("COc1cc(OC)c(C2CC(c3ccc(-c4ccccc4)cc3)=NN2)c(OC)c1 (centres undefined)", 0.833),
]

###

Tested on: Mus musculus
Assay: Analgesic activity in mouse at 41 umol/kg, po by tail immersion method relative to flurbiprophen
Format: functional
value type: Activity (%)

# molecule, assay target, reported result
rows = [
    ("Cc1ccc(C2CC(c3ccc(-c4ccccc4)cc3)=NN2)cc1 (centres undefined)", "Mus musculus", 72.9),
    ("COc1cc(OC)c(C2CC(c3ccc(-c4ccccc4)cc3)=NN2C(=O)c2ccccc2)c(OC)c1 (centres undefined)", "Mus musculus", 43.2),
    ("CC(C(=O)O)c1ccc(-c2ccccc2)c(F)c1 (centres undefined)", "Mus musculus", 69.5),
    ("COc1cc(OC)c(C2CC(c3ccc(-c4ccccc4)cc3)=NN2)c(OC)c1 (centres undefined)", "Mus musculus", 28.6),
]
